# System Tested: pm6, modified CCR8 related peptide (human, sulfated tyrosines at Y16 and Y17)
# Sequence (peptide, as listed by the source): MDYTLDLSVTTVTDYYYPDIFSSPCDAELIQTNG
# Measurement Notes: ELISA on coated CCR8 peptide (500 ng/mL), OD [cont.]

Binder	binding result
anti-CCR8 mAb 2-1 (antibody, V domains shown) VH: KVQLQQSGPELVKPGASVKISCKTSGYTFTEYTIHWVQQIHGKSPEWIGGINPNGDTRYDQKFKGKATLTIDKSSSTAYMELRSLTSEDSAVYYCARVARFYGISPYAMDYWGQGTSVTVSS VL: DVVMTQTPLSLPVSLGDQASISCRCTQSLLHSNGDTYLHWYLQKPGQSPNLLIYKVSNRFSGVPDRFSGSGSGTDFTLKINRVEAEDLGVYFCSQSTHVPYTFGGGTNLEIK	binds
anti-CCR8 mAb 2-8 (antibody, V domains shown) VH: QVQLKESGPGLVAPSQSLSITCTVSGFSLTDYGVSWIRQPPGKGPEWLGVIWGGGNTYYNSVLKSRLSISNDNSKSQVFLRMNSLQTADTAIYYCARPRRDYYALDYWGQGTSVTVAS VL: DVVMTQTPLSLPVSLGDQASISCRSSQSLVYTNGNTFLHWYLQKPGQSPKLLIYKVSNRFSGVPDRFSGSGSGTDFTLKISRVEAEDLGVYFCSQSTHVPPTFGGGTKLEIK	binds
